systemTested: GH29 fucosidase E1_10125 (Mediterraneibacter gnavus, UniProt A0A6N3BKT0, D236A)
Construct: gene hypBA2
Sequence (A0A6N3BKT0 35-583, stated change not applied): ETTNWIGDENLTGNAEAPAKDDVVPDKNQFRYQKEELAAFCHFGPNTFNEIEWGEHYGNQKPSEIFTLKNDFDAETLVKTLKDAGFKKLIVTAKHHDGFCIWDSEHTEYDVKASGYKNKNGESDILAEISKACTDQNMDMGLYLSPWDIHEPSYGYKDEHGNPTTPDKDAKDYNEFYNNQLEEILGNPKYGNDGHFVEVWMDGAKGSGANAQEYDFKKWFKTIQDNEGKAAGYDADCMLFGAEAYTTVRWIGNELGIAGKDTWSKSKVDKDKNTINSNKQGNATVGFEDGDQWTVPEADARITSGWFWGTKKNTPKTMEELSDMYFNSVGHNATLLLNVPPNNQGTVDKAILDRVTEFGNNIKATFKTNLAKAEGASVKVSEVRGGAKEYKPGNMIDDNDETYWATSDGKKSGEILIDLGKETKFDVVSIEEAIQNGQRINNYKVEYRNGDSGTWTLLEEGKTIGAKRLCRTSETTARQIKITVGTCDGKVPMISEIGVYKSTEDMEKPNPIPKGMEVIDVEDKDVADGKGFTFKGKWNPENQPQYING
testMethodNotes: X-ray crystal structure ([…] Å) and ITC
Assay type: binding
reportedProperty: Kd
Could you write the number and then its unit?

[Q] // query Kd value for entry C[C@@H]1OC(O)[C@@H](O)[C@H](O)[C@@H]1O (stereo partly shown)
[A] 21.7 µM
